# assay_comment: Apparent passive permeability in MDCK cells at 10 uM after 1 hr by LC-MS/MS analysis
# Format: ADME, cell-based, Canis lupus familiaris
# condition_notes: dog, MDCK
reported_endpoint: Papp at 1 h, 10 µM (×10⁻⁶ cm/s)
Numbers only, in ×10⁻⁶ cm/s.

Documented Papp at 1 h, 10 µM of O=C(NO)C(c1ccc(-c2cnccn2)cc1)c1ccccc1F (stereo unspecified) : 46.4

====

# assay_comment: Kinetic aqueous solubility of the compound
# Format: physicochemical
# condition_notes: buffer; read-out: Kinetic_solubility
reported_endpoint: solubility kinetic (µM)
One number for each entry, in µM.

The examples below pair each entry with its known result.
O=C(NO)C(c1ccc(-c2cnccn2)cc1)c1ccccc1F (stereo not drawn)    164
Cc1cnc(-c2ccc(C(C(=O)NO)c3ccccc3F)cc2)nc1 (stereo not drawn)    52

Proceeding to the next compound to report its solubility kinetic.
Documented solubility kinetic of O=C(NO)C(c1ccc(-c2nccc(C(F)(F)F)n2)cc1)c1ccccc1F (stereo not drawn) : 141
